src = ChEMBL document CHEMBL3779872

- tested.on: Trace amine-associated receptor 1 (Rattus norvegicus) (UniProt Q923Y9)
- Sequence (Q923Y9 whole entry): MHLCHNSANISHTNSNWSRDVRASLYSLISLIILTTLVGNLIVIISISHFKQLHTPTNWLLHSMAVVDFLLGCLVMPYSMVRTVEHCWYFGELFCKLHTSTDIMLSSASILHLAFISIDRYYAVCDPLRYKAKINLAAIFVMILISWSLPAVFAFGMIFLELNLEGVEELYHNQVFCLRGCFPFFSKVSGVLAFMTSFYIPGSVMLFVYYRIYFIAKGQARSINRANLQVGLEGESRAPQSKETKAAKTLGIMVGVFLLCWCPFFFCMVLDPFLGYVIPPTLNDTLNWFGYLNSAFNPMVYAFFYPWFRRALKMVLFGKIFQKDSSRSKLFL
- assay.procedure: Agonist activity at rat TAAR1 expressed in recombinant HEK293 cells assessed as cAMP accumulation after 30 mins by luminometer relative to phenethylamine
- Type: functional, cell-based
Listed here are molecules together with their documented Emax.

{"compound.smiles": "NC1=N[C@@H](c2cccc(F)c2)CO1", "Emax (%)": 68}
{"compound.smiles": "NC1=N[C@@H](c2ccccc2Cl)CO1", "Emax (%)": 105}
{"compound.smiles": "NC1=N[C@@H](c2ccc(Cl)cc2)CO1", "Emax (%)": 64}
{"compound.smiles": "CCc1cc(Cl)ccc1[C@H]1COC(N)=N1", "Emax (%)": 79}
{"compound.smiles": "NC1=N[C@@H](c2ccc(Cl)c(Cl)c2)CO1", "Emax (%)": 58}
{"compound.smiles": "Cc1ccccc1[C@H]1COC(N)=N1", "Emax (%)": 67}
{"compound.smiles": "Cc1c(F)cccc1[C@H]1COC(N)=N1", "Emax (%)": 69}
{"compound.smiles": "Cc1cc(Cl)ccc1[C@H]1COC(N)=N1", "Emax (%)": 93}
{"compound.smiles": "NC1=N[C@@H](c2ccc(-c3ccccc3)cc2)CO1", "Emax (%)": 80}
{"compound.smiles": "C[C@]1(c2ccccc2Cl)COC(N)=N1", "Emax (%)": 62}
{"compound.smiles": "NC1=N[C@@H](c2ccc(Cl)cc2C2CC2)CO1", "Emax (%)": 78}
{"compound.smiles": "C[C@]1(c2ccc(Br)cc2)COC(N)=N1", "Emax (%)": 36}
{"compound.smiles": "NC1=N[C@@H](c2ccc(Br)cc2)CO1", "Emax (%)": 83}
{"compound.smiles": "NC1=N[C@@H](c2cccc(Cl)c2)CO1", "Emax (%)": 76}
